target: Synaptic vesicle glycoprotein 2A (Rattus norvegicus); assay: In vitro inhibitory activity against [3H](2S)-2-[4-(3-azidophenyl)-2-oxopyrrolidin-1-yl]butanamide binding to levetiracetam binding site
Sequence (Q02563 whole entry): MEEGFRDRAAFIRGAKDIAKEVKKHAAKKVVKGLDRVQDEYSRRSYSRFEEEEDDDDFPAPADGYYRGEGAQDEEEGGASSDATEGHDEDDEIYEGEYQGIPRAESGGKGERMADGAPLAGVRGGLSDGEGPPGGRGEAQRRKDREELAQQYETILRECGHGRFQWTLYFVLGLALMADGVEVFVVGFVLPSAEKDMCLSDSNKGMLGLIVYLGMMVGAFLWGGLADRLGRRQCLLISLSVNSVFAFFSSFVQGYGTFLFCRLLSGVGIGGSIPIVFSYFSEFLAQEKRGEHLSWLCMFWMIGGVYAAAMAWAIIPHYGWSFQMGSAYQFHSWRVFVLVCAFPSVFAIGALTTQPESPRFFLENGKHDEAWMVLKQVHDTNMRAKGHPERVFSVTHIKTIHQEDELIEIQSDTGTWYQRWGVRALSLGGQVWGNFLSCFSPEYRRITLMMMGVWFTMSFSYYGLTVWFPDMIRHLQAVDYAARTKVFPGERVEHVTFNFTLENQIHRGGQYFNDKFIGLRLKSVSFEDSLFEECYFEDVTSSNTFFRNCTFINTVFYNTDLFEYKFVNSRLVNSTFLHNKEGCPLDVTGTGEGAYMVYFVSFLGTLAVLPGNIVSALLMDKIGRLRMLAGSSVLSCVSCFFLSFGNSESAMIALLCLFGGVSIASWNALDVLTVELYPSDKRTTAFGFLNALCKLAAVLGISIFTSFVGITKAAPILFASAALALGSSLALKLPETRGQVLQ
Lab note: cut-off is 4 µM. Strictly less in IC50 is 1. Exactly 4 µM or more is 0.

# example entries with known answers
>  <molecule>
CC[C@@H](C(N)=O)N1C[C@H](CF)CC1=O

>  <label class>
1

$$$$
>  <molecule>
CC[C@@H](C(=O)NO)N1CCCC1=O

>  <label class>
1

$$$$
>  <molecule>
CCC(C(N)=O)N1CC(COC)CC1=O (stereo not drawn)

>  <label class>
1

$$$$
>  <molecule>
CCC(C(=O)N(C)O)N1CCCC1=O (stereo not drawn)

>  <label class>
0

$$$$
>  <molecule>
CC[C@@H](C(N)=O)N1CC(CC2CC2)CC1=O (stereo partly drawn)

>  <label class>
1

$$$$

Input: Just wondering, is IC50 of CC[C@@H](C(N)=O)N1CCCC1=O below 4 µM?
Output: 1

Input: Just wondering, is IC50 of CCCCCCCN(C(=O)Cc1ccc(OC)cc1)C(CC)C(N)=O (stereo not drawn) below 4 µM?
Output: 1

Input: Just wondering, is IC50 of CC[C@@H](C(N)=O)N1C[C@H](CO[N+](=O)[O-])CC1=O below 4 µM?
Output: 1

Input: Just wondering, is IC50 of CCC[C@@H](C(N)=O)N1CCCC1=O below 4 µM?
Output: 0

Input: Just wondering, is IC50 of CCC(C(=O)NN)N1CCCC1=O (stereo not drawn) below 4 µM?
Output: 0

Input: Just wondering, is IC50 of CC[C@@H](C(N)=O)N1CC(CC(C)(C)C)CC1=O (stereo partly drawn) below 4 µM?
Output: 1

The origin of these recorded values is BindingDB's records for doi:10.1021/jm030913e.
